Molecular target: HDAC6 (Homo sapiens)
Construct: GST
Sequence (Q9UBN7 whole entry): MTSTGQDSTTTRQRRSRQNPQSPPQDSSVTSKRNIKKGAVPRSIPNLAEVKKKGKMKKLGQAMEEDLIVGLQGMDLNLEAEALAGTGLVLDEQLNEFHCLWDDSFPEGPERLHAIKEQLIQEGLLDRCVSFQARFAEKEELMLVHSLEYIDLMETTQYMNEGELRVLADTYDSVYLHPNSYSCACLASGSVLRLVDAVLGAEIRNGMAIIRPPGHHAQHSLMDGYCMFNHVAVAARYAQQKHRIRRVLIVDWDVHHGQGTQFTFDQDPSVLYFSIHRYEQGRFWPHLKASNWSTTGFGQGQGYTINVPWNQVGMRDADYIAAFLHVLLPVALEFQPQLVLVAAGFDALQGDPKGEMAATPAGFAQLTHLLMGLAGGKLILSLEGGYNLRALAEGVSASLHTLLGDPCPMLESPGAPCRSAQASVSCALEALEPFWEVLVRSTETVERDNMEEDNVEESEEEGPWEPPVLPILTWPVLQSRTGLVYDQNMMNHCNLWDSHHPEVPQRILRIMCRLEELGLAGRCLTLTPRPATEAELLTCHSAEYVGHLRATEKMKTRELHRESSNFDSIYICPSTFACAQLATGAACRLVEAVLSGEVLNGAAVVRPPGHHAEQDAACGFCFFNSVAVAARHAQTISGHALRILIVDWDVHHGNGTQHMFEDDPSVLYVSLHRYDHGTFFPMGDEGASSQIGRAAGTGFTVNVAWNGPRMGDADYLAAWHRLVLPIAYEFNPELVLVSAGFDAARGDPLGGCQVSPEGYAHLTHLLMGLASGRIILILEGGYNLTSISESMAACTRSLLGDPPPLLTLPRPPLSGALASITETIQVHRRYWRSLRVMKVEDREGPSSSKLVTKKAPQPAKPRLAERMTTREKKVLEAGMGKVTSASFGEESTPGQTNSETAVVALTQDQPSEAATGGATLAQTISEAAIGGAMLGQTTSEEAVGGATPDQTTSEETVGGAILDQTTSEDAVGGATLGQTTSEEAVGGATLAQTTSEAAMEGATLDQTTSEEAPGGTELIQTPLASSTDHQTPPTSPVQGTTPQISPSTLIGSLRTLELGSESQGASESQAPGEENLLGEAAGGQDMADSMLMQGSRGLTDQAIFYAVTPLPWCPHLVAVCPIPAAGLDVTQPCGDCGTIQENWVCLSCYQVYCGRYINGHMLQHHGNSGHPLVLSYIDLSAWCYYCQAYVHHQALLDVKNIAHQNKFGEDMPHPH
Test: HDAC6 fluorimetric enzyme inhibition assay (BPS Bioscience kit)
Details: human recombinant HDAC6 GST-tag; triplicate
Protocol: These isoforms were chosen as they provide contrasting binding topographies, and HDAC6 in particular is closely linked with cancer metastasis (Figure 2). 5. Enzyme Inhibition Assay HDAC enzyme inhibition assays were carried out for as stated using commercially available assay kits (BPS Bioscience ) and undertaken in a 96 well plate. […] NaCl, 2.7 mM KCl, 1 mM MgCl 2). […] Fluorescence was measured […] determined by quantification of fluorescence relative to control, with no added inhibitor. […]
attribute.measured: pIC50
On this scale, pIC50 is minus log10 of a concentration expressed in M (mol/L).

Query pIC50 on HDAC6 (Homo sapiens) for O=C(CCCCCCC(=O)Nc1cc2cccnc2c2ncccc12)NO
7.39
